# Method description: photoluminescence quantum yield (fraction); solvent given as SMILES
# Experimental conditions: in ClCCl
Endpoint name: photoluminescence quantum yield

{"Smiles representation": "COc1ccc(/C=C/c2cc(/C=C/c3ccc(OC)cc3)nc(/C=C/c3ccc(OC)cc3)n2)cc1", "Observed result": 0.15}
{"Smiles representation": "COc1ccc(C2=CC(c3ccccc3)=C(c3ccccc3)C2)c2ccccc12", "Observed result": 0.0685}
{"Smiles representation": "CCN(CC)c1ccc2c(-c3ccccc3C(=O)O)c3c([o+]c2c1)/C(=C/c1nc(-c2ccccc2)n2ccccc12)CCC3", "Observed result": 0.4}
{"Smiles representation": "COc1ccc2cc(/C=C/c3nc(/C=C/c4ccc(N(C)C)cc4)cc(/C=C/c4ccc(N(C)C)cc4)n3)ccc2c1", "Observed result": 0.52}

###

# Method description: photoluminescence quantum yield (fraction); solvent given as SMILES
# Experimental conditions: in ClCCl

{"Smiles representation": "CN(C)c1ccc(C2=Nc3sc4cc(F)ccc4[n+]3[B-](F)(F)O2)cc1", "photoluminescence quantum yield": 0.74}
{"Smiles representation": "F[B-]1(F)n2c(Cl)c(Cl)c(Br)c2C(Cl)=C2C(Br)=C(Cl)C(Cl)=[N+]21", "photoluminescence quantum yield": 0.18}
{"Smiles representation": "CCCCCCN1C(=O)c2cccc3c(-c4ccc(-c5cc(-c6ccc(C)cc6)n(-c6ccccc6)n5)s4)ccc(c23)C1=O", "photoluminescence quantum yield": 0.36}
{"Smiles representation": "CC(C)[Si](C#Cc1c2cc3ccccc3cc2c(C#C[Si](C(C)C)(C(C)C)C(C)C)c2nc3cc4c(cc3nc12)C1c2ccccc2C4c2ccccc21)(C(C)C)C(C)C", "photoluminescence quantum yield": 0.11}

###

# Method description: photoluminescence quantum yield (fraction); solvent given as SMILES
# Experimental conditions: in CS(C)=O
Assign classes using reported photoluminescence quantum yield values and the ranges LOW: < 0.1; MEDIUM: ≥ 0.1 and < 0.6; HIGH: ≥ 0.6, please.

{"Compound": "COc1cc2c(cc1C=C(C#N)C#N)c1ccccc1n2C", "Classification": "LOW"}
{"Compound": "CCC1=C(C)C(=O)n2c1cc1[nH]c(C(=O)OC(C)(C)C)c(C)c1c2=O", "Classification": "HIGH"}
{"Compound": "COc1ccc(/N=N/c2c(O)c3ccccc3n(C)c2=O)c(S(=O)(=O)O)c1", "Classification": "LOW"}
{"Compound": "Brc1ccc(-c2nc3sc4ccccc4c3s2)cc1", "Classification": "HIGH"}
{"Compound": "CN(C)C(=O)c1ccc(-c2nc3ccc(N(C)C)cc3s2)cc1", "Classification": "HIGH"}
{"Compound": "CCNc1cc2oc(=O)c3c(=O)oc4ccccc4c3c2cc1C", "Classification": "MEDIUM"}
{"Compound": "CCOC(=O)C1=C(N)n2c(=O)c3ccccc3c(=O)n2C1c1ccc([N+](=O)[O-])cc1 (stereo not given)", "Classification": "LOW"}
{"Compound": "Cn1c2ccccc2c(=O)c2ccccc21", "Classification": "HIGH"}
{"Compound": "CC(=O)c1c2c(cc3ccc(N(C)C)cc13)CCC2", "Classification": "HIGH"}
{"Compound": "COc1ccc(C#Cc2ccc(C#Cc3ccc(P(=O)(c4ccc(C#Cc5ccc(C#Cc6ccc(OC)cc6)cc5)cc4)c4ccc(C#Cc5ccc(C#Cc6ccc(OC)cc6)cc5)cc4)cc3)cc2)cc1", "Classification": "HIGH"}
{"Compound": "O=C(O)COc1ccc2[nH]c3c(c2c1)CCCC3=O", "Classification": "LOW"}
{"Compound": "CCCCCCC(CCCCCC)n1c(=O)c2c3ccc4cccc5c6cccc7ccc(c2c1=O)c(c76)c3c45", "Classification": "MEDIUM"}
{"Compound": "O=C1c2ccccc2-c2cc3ccccc3c(=O)n21", "Classification": "MEDIUM"}
{"Compound": "COc1cc(OC)cc(C2=C3C(C)=C(I)C(C)=[N+]3[B-](F)(F)n3c(C)c(I)c(C)c32)c1", "Classification": "LOW"}
{"Compound": "Clc1ccccc1-c1nc2sc3ccccc3c2s1", "Classification": "MEDIUM"}
{"Compound": "CCOC(=O)CN1C(=O)C2=C(c3ccccc3)N(CC(=O)OCC)C(=O)C2=C1c1ccccc1", "Classification": "MEDIUM"}
{"Compound": "O=c1oc2ccc(Cl)cc2cc1-c1cc2cc(Cl)ccc2o1", "Classification": "MEDIUM"}
{"Compound": "COC(=O)C(Cc1ccc2oc(-c3ccc(-n4c5ccccc5c5ccccc54)cc3)nc2c1)NC(=O)OC(C)(C)C (stereo not given)", "Classification": "MEDIUM"}
{"Compound": "CSc1sc(C(=O)c2ccccc2)c2nn[nH]c(=O)c12", "Classification": "LOW"}
{"Compound": "C#CCn1c2ccccc2c2cc(/C=C/c3c(Cl)c(C)c4n3[B-](F)(F)[N+]3=C(C)C(Cl)=C(C)C3=C4c3ccc(I)cc3)ccc21", "Classification": "MEDIUM"}
